# maps each entry to its slope of concentration-response curve
- Test target: human vasopressin V2 receptor (V2R) (Homo sapiens, UniProt P30518)
- Sequence (P30518 whole entry): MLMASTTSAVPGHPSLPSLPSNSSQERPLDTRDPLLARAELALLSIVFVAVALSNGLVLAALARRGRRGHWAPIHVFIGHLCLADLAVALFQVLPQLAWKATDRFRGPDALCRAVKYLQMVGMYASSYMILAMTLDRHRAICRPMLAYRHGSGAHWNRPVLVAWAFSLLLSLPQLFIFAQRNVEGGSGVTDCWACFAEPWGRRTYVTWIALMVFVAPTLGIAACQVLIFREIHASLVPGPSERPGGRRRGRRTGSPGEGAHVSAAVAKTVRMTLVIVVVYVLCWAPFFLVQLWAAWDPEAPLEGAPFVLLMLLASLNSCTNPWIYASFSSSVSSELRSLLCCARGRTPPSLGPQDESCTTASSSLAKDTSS
- Experiment: arrestin-GFP localization (Fgrains) assay in U20S-V2R/ArrGFP cells, arginine vasopressin stimulated
- Assay type: cell-based
- Experimental setup: V2R RT plate: room temperature, atmospheric CO2; 100 nM arginine vasopressin

Compound | slope of concentration-response curve
Cn1cc(C2=C(c3cn(CCCN)c4ccccc34)C(=O)NC2=O)c2ccccc21 [RO-31-7549] | 1.5
NCCCn1cc(C2=C(c3c[nH]c4ccccc34)C(=O)NC2=O)c2ccccc21 [Bisindolylmaleimide III] | 0.9
CN1CCCC1CCn1cc(C2=C(c3c[nH]c4ccccc34)C(=O)NC2=O)c2ccccc21 (centres unmarked) [Bisindolylmaleimide II] | 1.1
Cn1cc(C2=C(c3c4n(c5ccccc35)CCC(CN)C4)C(=O)NC2=O)c2ccccc21 (centres unmarked) [RO-31-8425] | 1.5
C[n+]1cc2c3c(ccc2c2ccc4cc5c(cc4c21)OCO5)OCO3 [Sanguinarine Chloride (LOPAC), Sanguinarine Chloride] | 2.3
